Target: T1, Source 1 VEGF-D, mature dimeric recombinant human VEGF-D (CSIRO) (human, UniProt O43915 89-205)
T1 construct: Whole entry named; also called Source 1 VEGF-D dimer; VEGF-D dimer
T1 sequence: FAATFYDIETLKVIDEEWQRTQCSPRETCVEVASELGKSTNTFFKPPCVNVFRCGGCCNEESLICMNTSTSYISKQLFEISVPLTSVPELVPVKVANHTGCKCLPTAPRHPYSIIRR
Assay: SPR Protocol A: IgG captured by anti-human Fc, VEGF-D dimer as analyte
parameter: kon (M⁻¹ s⁻¹)
Report as a plain number; the unit M⁻¹ s⁻¹ is understood.

Worked examples, 5 binders total:
binder	parameter	readout_unit	quantitative_result
humanized IgG antibody derived from clone DI26 (antibody, V domains shown, IgG) VH: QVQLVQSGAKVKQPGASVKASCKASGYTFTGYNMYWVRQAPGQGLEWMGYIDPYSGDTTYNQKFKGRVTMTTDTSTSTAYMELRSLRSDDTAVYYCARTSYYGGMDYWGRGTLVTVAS VL: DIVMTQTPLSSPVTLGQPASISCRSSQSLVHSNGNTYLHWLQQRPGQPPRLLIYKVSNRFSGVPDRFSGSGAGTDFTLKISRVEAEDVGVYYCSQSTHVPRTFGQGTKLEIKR	kon	M⁻¹ s⁻¹	560000
humanized IgG antibody derived from clone HH69 (antibody, V domains shown, IgG) VH: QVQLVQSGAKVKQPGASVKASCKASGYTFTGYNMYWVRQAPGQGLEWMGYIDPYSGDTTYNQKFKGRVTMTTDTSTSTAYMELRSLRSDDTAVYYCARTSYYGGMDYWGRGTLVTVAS VL: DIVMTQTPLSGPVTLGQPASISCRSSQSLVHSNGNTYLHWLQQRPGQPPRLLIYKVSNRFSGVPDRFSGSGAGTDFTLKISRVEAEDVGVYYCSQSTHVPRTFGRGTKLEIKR	kon	M⁻¹ s⁻¹	390000
humanized IgG antibody derived from clone HX28 (antibody, V domains shown, IgG) VH: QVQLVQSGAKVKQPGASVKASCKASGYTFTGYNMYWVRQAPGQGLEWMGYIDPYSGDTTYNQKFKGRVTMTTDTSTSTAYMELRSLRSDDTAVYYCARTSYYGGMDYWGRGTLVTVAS VL: DIVMTQTPLSSPVTLGQPASISCRSSQSLVHSNGNTYLHWLQQRPGQPPRLLIYKVSNRFSGVPGRFSGSGAGTDFTLKISRVEAEDVGVYYCSQSTHVPRTFGQGTKLEIKR	kon	M⁻¹ s⁻¹	360000
humanized IgG antibody derived from clone HH41 (antibody, V domains shown, IgG; also called HH41#1; HH41#2) VH: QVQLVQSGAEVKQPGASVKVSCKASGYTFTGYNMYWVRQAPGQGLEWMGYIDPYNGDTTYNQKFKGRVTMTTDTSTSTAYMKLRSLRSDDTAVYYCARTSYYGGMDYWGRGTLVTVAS VL: DIVMTQTPLSSPVTLGQPASISCRSSQSLVHGNGNTYLHWLQQRPGQPPRLLIYKVSNRFSGVPDRFSGSGAGTDFTLKISRVEAEDVGVYYCSQSTHVPRTFGQGTKLEIKR	kon	M⁻¹ s⁻¹	530000
humanized IgG antibody derived from clone HW78 (antibody, V domains shown, IgG) VH: QVQLVQSGAEVKQPGASVKVSCKARGYTFTGYNMYWVRQAPGQGLEWMGYIDPYNGDTTYNQKFKGRVTMTTDTSTGTAYMKLRSLRSDDTAVYYCARTSYYGGMDYWGRGTLVTVAS VL: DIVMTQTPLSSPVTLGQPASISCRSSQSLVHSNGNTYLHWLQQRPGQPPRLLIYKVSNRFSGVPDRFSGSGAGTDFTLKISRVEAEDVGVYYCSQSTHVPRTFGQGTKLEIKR	kon	M⁻¹ s⁻¹	510000

Enquiry: Reported kon for Ig-1A, humanized IgG reformatted from scFv 1A (antibody, V domains shown, IgG made in mammalian cells; also called humanized Ig-1A) VH: QVQLVQSGAEVKQPGASVKVSCKASGYTFTGYNMYWVRQAPGQGLEWMGYIDPYNGDTTYNQKFKGRVTMTTDTSTSTAYMELRSLRSDDTAVYYCARTSYYGGMDYWGRGTLVTVAS VL: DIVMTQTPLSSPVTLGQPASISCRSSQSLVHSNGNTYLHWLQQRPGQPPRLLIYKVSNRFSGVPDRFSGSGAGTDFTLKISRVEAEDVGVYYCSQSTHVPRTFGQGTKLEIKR : what is it?
Return: 710000

Enquiry: Would you kindly repeat that for humanized IgG antibody derived from clone HU75 (antibody, V domains shown, IgG) VH: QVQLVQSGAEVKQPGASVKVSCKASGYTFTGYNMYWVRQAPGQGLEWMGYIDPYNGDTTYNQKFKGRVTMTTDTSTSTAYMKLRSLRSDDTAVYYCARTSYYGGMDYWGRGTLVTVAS VL: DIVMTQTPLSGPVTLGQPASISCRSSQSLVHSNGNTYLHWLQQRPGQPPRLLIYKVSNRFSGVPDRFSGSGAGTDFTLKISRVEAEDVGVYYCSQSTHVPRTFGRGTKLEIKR ?
Return: 460000
